# System: Lung cancer cell line NCI-H358 containing KRas G12C mutation
# assay name: Assay for cell proliferation (Cell-titer Glo, 5 days)
# Assay type: cell-based, human
# experimental parameters: Homo sapiens, NCI-H358, 120 h, NCI-H358, 5 days, Cell-titer Glo; read-out: IC50 (nM), Inhibition of NCI-H358 Cell Proliferation
# Experimental: One hundred fifty microliter (150 μL) of media containing 2000 cells per well were seeded into each well of a 96-well culture plate and left to attach overnight in a 37° C. incubator with 5% CO2. Diluted compounds of 0.75 μL for each well were added by liquid handler at a final concentration of 0.5% DMSO. Cells were treated for 5 days in the incubator. Cell-titer Glo (CTG) kit (Promega) was used to assess cell proliferation. […]
attribute measured: IC50 (nM)

smiles record	target desc	attribute measured	value comparator	result
C=CC(=O)N1CCN(c2nc(=O)n(-c3c(C(C)C)nc(C)nc3C(C)C)c3nc(-c4c(N)cccc4F)c(F)cc23)[C@@H](C)C1	Lung cancer cell line NCI-H358 containing KRas G12C mutation	IC50	=	10.4
C=CC(=O)N1CCN(c2nc(=O)n(-c3c(C4CC4)nc(N4CCNCC4)nc3C3CC3)c3nc(-c4c(N)cccc4F)c(Cl)cc23)[C@@H](C)C1	Lung cancer cell line NCI-H358 containing KRas G12C mutation	IC50	=	2.8
C=CC(=O)N1C[C@H](C)N(c2nc(=O)n(-c3c(C4CC4)nc(C)nc3C3CC3)c3nc(-c4c(N)cccc4F)c(F)cc23)C[C@H]1C	Lung cancer cell line NCI-H358 containing KRas G12C mutation	IC50	=	12.5
C=CC(=O)N1CCN(c2nc(=O)n(-c3c(C)ccnc3C(C)C)c3nc(-c4cccc5[nH]nc(N)c45)c(F)cc23)[C@@H](C)C1	Lung cancer cell line NCI-H358 containing KRas G12C mutation	IC50	>	3000
C=CC(=O)N1CCN(c2nc(=O)n(-c3ccc4c(ncn4C)c3C(C)C)c3nc(-c4ccccc4F)c(Cl)cc23)[C@@H](C)C1	Lung cancer cell line NCI-H358 containing KRas G12C mutation	IC50	=	13.1
C=CC(=O)N1CCN(c2nc(=O)n(-c3c(C(C)C)cc4c(ncn4C)c3C)c3nc(-c4ccccc4F)c(Cl)cc23)[C@@H](C)C1	Lung cancer cell line NCI-H358 containing KRas G12C mutation	IC50	=	46.5

---

Catalogue of log10(half-life at 1 µM) readings, one per entry.
# assay name: Human hepatocyte clearance study
# Format: in vitro ADME
# experimental parameters: human, pooled cryopreserved human hepatocytes (suspension); working cell density 0.5 × 10^6 viable cells/mL; read-out: Human In vitro T1/2
attribute measured: log10(half-life at 1 µM) (log10 of the value in h)

compound	log10(half-life at 1 µM)
C=CC(=O)N1CCN(c2nc(=O)n(-c3c(C4CC4)nc(C)nc3C3CC3)c3nc(-c4c(O)cccc4F)c(F)cc23)[C@@H](C)C1 [Compound 28]	0.44
C=CC(=O)N1CCN(c2nc(=O)n(-c3c(C4CC4)ncnc3C3CC3)c3nc(-c4ccccc4F)c(Cl)cc23)[C@@H](C)C1 [Compound 1]	0.05
C=CC(=O)N1CCN(c2nc(=O)n(-c3c(C(C)C)nc(N)nc3C(C)C)c3nc(-c4ccccc4F)c(Cl)cc23)[C@@H](C)C1 [Compound 6]	0.08
C=CC(=O)N1CCN(c2nc(=O)n(-c3ccc4c(ncn4C)c3C(C)C)c3nc(-c4ccccc4F)c(Cl)cc23)[C@@H](C)C1 [Compound 72]	0.24
C=CC(=O)N1CCN(c2nc(=O)n(-c3c(C4CC4)nc(C)nc3C3CC3)c3nc(-c4c(N)cccc4F)c(F)cc23)[C@@H](C)C1 [Compound 29]	0.43
C=CC(=O)N1CCN(c2nc(=O)n(-c3c(C(C)C)nc(OCCN(C)C)nc3C(C)C)c3nc(-c4c(O)cccc4F)c(Cl)cc23)[C@@H](C)C1 [Compound 22]	0.90
C=CC(=O)N1C[C@H](C)N(c2nc(=O)n(-c3c(C(C)C)nc(OCCN(C)C)nc3C(C)C)c3nc(-c4ccccc4F)c(Cl)cc23)C[C@H]1C [Compound 24]	0.59
C=CC(=O)N1CCN(c2nc(=O)n(-c3c(C(C)C)nc(OC)nc3C(C)C)c3nc(-c4ccccc4F)c(Cl)cc23)[C@@H](C)C1 [Compound 8]	-0.44
C=CC(=O)N1CCN(c2nc(=O)n(-c3c(C(C)C)nc(C)nc3C(C)C)c3nc(-c4ccccc4F)c(Cl)cc23)[C@@H](C)C1 [Compound 9]	-0.08
C=CC(=O)N1CCN(c2nc(=O)n(-c3c(C(C)C)nc(N4CCNCC4)nc3C(C)C)c3nc(-c4ccccc4F)c(Cl)cc23)[C@@H](C)C1 [Compound 14]	0.71
C=CC(=O)N1CCN(c2nc(=O)n(-c3c(C(C)C)nc(OCCN(C)C)nc3C(C)C)c3nc(-c4c(N)cccc4F)c(Cl)cc23)[C@@H](C)C1 [Compound 23]	0.97
C=CC(=O)N1CCN(c2nc(=O)n(-c3c(C4CC4)nc(OCCN(C)C)nc3C3CC3)c3nc(-c4ccccc4F)c(F)cc23)[C@@H](C)C1 [Compound 21]	1.12
C=CC(=O)N1C[C@H](C)N(c2nc(=O)n(-c3c(C4CC4)nc(C)nc3C3CC3)c3nc(-c4c(O)cccc4F)c(F)cc23)C[C@H]1C [Compound 52]	0.50
C=CC(=O)N1CCN(c2nc(=O)n(-c3c(C4CC4)nc(OCCN(C)C)nc3C3CC3)c3nc(-c4ccccc4F)c(Cl)cc23)[C@@H](C)C1 [Compound 20]	0.66
